Please respond with reported growth inhibition for every item in the list.
# Test system: Plasmodium falciparum NF54
# measurement-notes: growth inhibition relative to untreated control; higher = more inhibition
# measurement-parameters: 5 µM; minimal medium (MM); 72 h
One number for each entry, in %.

Provide each entry's growth inhibition from the list below.
1. CC(C(=O)N1CCCC1)N1CCN(S(=O)(=O)c2ccc(C(C)(C)C)cc2)CC1 (stereo not given)
2. O=C(CN1CCOCC1)Nc1ccc2ncnc(Nc3ccc(OCc4cccc(F)c4)c(Cl)c3)c2c1
3. c1cncc(NCc2ccc(-c3cc4ccncc4cc3OC3CCNCC3)s2)c1

[33.4, 91.9, 84.2]

Respond only with growth inhibition recorded for COc1ccc2nc(C)cc(OCC(=O)Nc3ccccc3OC)c2c1
27.5

* * *

# Test system: Plasmodium falciparum NF54
# measurement-notes: growth inhibition relative to untreated control; higher = more inhibition
# measurement-parameters: 5 µM; MM + chorismate end-products (CM screening medium); 72 h
assay-endpoint: growth inhibition (%)
Give bare numbers, in %.

The cases that follow already have their growth inhibition on record.
COc1ccc(C2=NN(C3CCCCCC3)C(=O)[C@@H]3CC=CC[C@H]23)cc1OCCCCOc1ccc(-c2nnn[nH]2)cc1 | 44.9
CCNC(=O)C(C)Nc1nc(-c2cccnc2)nc2sc(C)c(C)c12 (configuration not stated) | 16.8
c1ccc(C[C@@H]2CN(c3nccc(Oc4ccc(-n5ccnc5)cc4)n3)CCN2)cc1 | 95.3

Parameters: items (list). Returns: growth inhibition for each item.
1. Cc1ccc(S(=O)(=O)N2CCN(C(=O)c3cc(-c4ccccc4)n[nH]3)CC2)cc1
2. CC1CC1C(=O)NC1CCN(CC2(c3ccccc3)CCCCC2)CC1 (configuration not stated)
3. Brc1c(-c2ccc3c(c2)OCO3)nc2ncccn12
4. Cc1ccc(-c2nc(CN(Cc3ccccn3)C(C)C)cs2)o1
5. CCOc1ccc(-c2nc(NC(=O)CS(=O)(=O)c3ccccc3)sc2C)cc1
6. CC(C)n1ncc2c(C(=O)NCC(c3cccs3)N3CCOCC3)cc(-c3ccccc3)nc21 (configuration not stated)
7. CCc1ccccc1-n1c(C)cn2c3c(=O)n(C(C(=O)OC)C(C)C)c(=O)n(C)c3nc12 (configuration not stated)

1: 82.9; 2: 90.8; 3: 29.5; 4: 81.7; 5: 95.3; 6: 42.4; 7: 84.3

* * *

# Tested on: Plasmodium falciparum NF54
# measurement-notes: growth inhibition relative to untreated control; higher = more inhibition
# measurement-parameters: 1 µM; minimal medium (MM); 72 h
assay-endpoint: growth inhibition (%)
Numbers only, in %.

CCc1cc(=O)n(C)c(SC(C)C(=O)Nc2ccc(F)cc2)n1 (centres undefined) | 2.62
O=C(NCCN1CCCC1)c1cc(NCCN2CCOCC2)nc2ccc(Cl)cc12 | 97.2
COC(=O)c1c(NC(=O)c2cc3ccccc3oc2=O)sc2c1CCN(Cc1ccccc1)C2 | 8.51
CC[C@@H]([C@H](C)O)n1ncn(-c2ccc(N3CCN(c4ccc(OC[C@@H]5CO[C@@](Cn6cncn6)(c6ccc(F)cc6F)C5)cc4)CC3)cc2)c1=O | 50.3
O=[N+]([O-])c1cn2c(n1)OC[C@@H](OCc1ccc(OC(F)(F)F)cc1)C2 | 2.72

Please look at the following compound next.
Fill in reported growth inhibition for this entry: Cc1cc(C(=O)Nc2cnn(Cc3ccc(Cl)cc3Cl)c2)no1
72.9

* * *

Provide the reported growth inhibition of each item.
# System: Plasmodium falciparum NF54
# measurement-notes: growth inhibition relative to untreated control; higher = more inhibition
# measurement-parameters: 1 µM; MM + chorismate end-products (CM screening medium); 72 h
Give bare numbers, in %.

Below, 5 compounds whose answers are already recorded.
COc1ccccc1CNC(=O)c1cc(C2CC2)nc2c1cnn2C(C)C | 82.9
O=C1COCc2ccc(Br)cc2N1Cc1ccc(C(F)(F)F)cc1 | 56
N#CCN(CCCCN1CCN(c2ccc(F)cc2)CC1)C(=O)OCc1ccccc1 | 20.2
CCC(Sc1nc2ccccc2o1)C(=O)Nc1nnc(C)s1 (stereo unspecified) | 13.2
COc1cc2ncnc(NC3CCN(Cc4ccccc4)CC3)c2cc1OC | 98.1

Required: growth inhibition, one value per compound below.
1. Cc1cnc(N2CCN[C@@H](Cc3ccccc3)C2)nc1Oc1ccc(-n2ccnc2)cc1
2. CC1COC2(CCN(c3nc(=O)c4cc(C(F)(F)F)cc([N+](=O)[O-])c4s3)CC2)O1 (stereo unspecified)
3. c1ccc(C[C@@H]2CN(c3nccc(Oc4ccc(-n5ccnc5)cc4)n3)CCN2)cc1

1. 93.8
2. 6.95
3. 98.3

Respectfully, I request growth inhibition for each entry included below.
1. CS(=O)(=O)c1ccccc1C(=O)N(Cc1ccccc1)c1ccccc1
2. NCCC(O)C(=O)N[C@@H]1C[C@H](N)[C@@H](OC2O[C@H](CN)[C@@H](O)[C@H](O)[C@H]2O)[C@H](O)C1OC1O[C@H](CO)[C@@H](O)[C@H](N)[C@H]1O (stereo partly specified)
3. O=C(Nc1cnc2ccccc2c1)c1cccc(-n2cnnn2)c1

35.9
46
94.1

For each listed entry, give its growth inhibition.
1. C[C@H]1COc2c(N3CCN(C)CC3)c(F)cc3c(=O)c(C(=O)O)cn1c23
2. COc1cc(C2=NCCN2)cc2cc(-c3ccc(C4=NCCN4)cc3)oc12
3. COC(=O)Nc1nc2cc(C(=O)c3ccccc3)ccc2[nH]1
4. Cc1nn2c(O)c3c(nc2c1-c1ccc(F)cc1)CCCC3
5. c1ccc(-c2cc(N3CCCCC3)c3ccccc3n2)nc1
6. CC(C(=O)Nc1ccc2oc(-c3ccncc3)nc2c1)c1ccccc1 (stereo unspecified)
7. CCOc1ccc(-c2nc(CNCCc3ccc(F)cc3)cs2)cc1

1: 17.1; 2: 78; 3: 12; 4: 11; 5: 3.57; 6: 14.6; 7: 2.22

The following compounds each have a reported value; give each one's growth inhibition.
1. Clc1ccc(-n2cc(COc3ccnc4ccccc34)nn2)cc1
2. Cc1nc(-c2ccccn2)nc(N2CCC(Cc3ccccc3)C2)c1Cl (stereo unspecified)

1: 4.03; 2: 52.8

* * *

Please go through the items and note down their growth inhibition.
# System: Plasmodium falciparum NF54
# measurement-notes: growth inhibition relative to untreated control; higher = more inhibition
# measurement-parameters: 1 µM; MM + chorismate end-products (CM screening medium); 72 h
Numbers only, in %.

COc1cccc(-c2nc3c(N4CCCC4)cccc3n2CC2CCCN2)n1 (stereo not given) | 79.8
O[C@@H](c1cc(C(F)(F)F)nc2c(C(F)(F)F)cccc12)[C@H]1CCCCN1 | 94.5

Below are 2 molecules. Give each one its growth inhibition.
1. O=C(Nc1ccc(N2CCNCC2)nc1)c1oc(-c2ccccc2)nc1C(F)(F)F
2. CCOc1ccc(-c2nc(NC(=O)CS(=O)(=O)c3ccccc3)sc2C)cc1

91.7
96.4

* * *

# Tested on: Plasmodium falciparum NF54
# measurement-notes: growth inhibition relative to untreated control; higher = more inhibition
# measurement-parameters: 5 µM; MM + chorismate end-products (CM screening medium); 72 h
assay-endpoint: growth inhibition (%)
Numbers only, in %.

Please state growth inhibition for every molecule in the list that follows.
1. N#CCN(CCCCN1CCN(c2ccc(F)cc2)CC1)C(=O)OCc1ccccc1
2. Cc1nn2c(O)c3c(nc2c1-c1ccc(F)cc1)CCCC3
3. CC(C)(CN)c1nc(-c2ccc(Cl)c(O)c2)c(-c2ccnc(N)n2)[nH]1
4. FC(F)(F)c1cccc(-c2nc3c(NCc4ccncc4)nccc3[nH]2)c1
5. CC(C)(C)c1cnc(NC(=O)c2ccccc2O)s1

32.3
36.7
30.1
95.4
51.6

# batch size: 6; output growth inhibition per entry
1. COc1ccc(-c2nn(C(C)C)c3ncnc(N)c23)cc1OC
2. CN(C(=O)c1cc2c(-c3cncnc3)cccc2[nH]1)c1ccccc1
3. CCCCc1ccc(C(=O)Nc2nccc3ccccc23)nc1
4. CN1CCCC1CCO[C@](C)(c1ccccc1)c1ccc(Cl)cc1 (stereo partly drawn)
5. N#Cc1nc(-c2ccccc2)oc1S(=O)(=O)c1ccc(Cl)cc1
6. COC(=O)C1=C(C)NC(C)=C(C(=O)OC(C)C)C1c1cccc2nonc12 (stereo not drawn)

97.3
96
11.6
98
97.9
28.3

Here are 2 molecules. What values of growth inhibition were reported for them?
1. CC(C)NCC(=O)Nc1cccc(C(=O)Nc2cccc(C(F)(F)F)c2)c1
2. Cc1cc(NCC(C)C)c2[nH]nc(-c3ccccc3)c2n1

89.3
99.7

Please state, for each entry, its recorded growth inhibition.
1. Cc1cc(NC(=O)c2ccc(Oc3ccc(Cl)cc3O)o2)no1
2. Cc1nc(-c2ccccn2)nc(N2CCC(Cc3ccccc3)C2)c1Cl (stereo not drawn)

1: 24.4; 2: 80.2

* * *

# System: Plasmodium falciparum NF54
# measurement-notes: growth inhibition relative to untreated control; higher = more inhibition
# measurement-parameters: 1 µM; minimal medium (MM); 72 h
Would you kindly list growth inhibition for each of these compounds?
Give bare numbers, in %.

Below: 5 compounds and their reported growth inhibition.
CCOc1ccc(-c2nc(NC(=O)CS(=O)(=O)c3ccccc3)sc2C)cc1 | 95.3
CCOC(=O)c1cc(-c2csc(Nc3c(C)cc(C)cc3C)n2)on1 | 20.5
O=C(Nc1ccccc1-c1nc2c(C(=O)O)cccc2o1)c1ccccc1 | 0.353
Cc1ccc2cc(C3NC(=O)c4ccccc4N3)c(Cl)nc2c1 (stereo unspecified) | 82.6
COc1ccc(OC(C)C(=O)Nc2ccc(Cl)cc2C)cc1 (stereo unspecified) | 15.2

For every item below, please supply its growth inhibition.
1. COc1ccc(-c2nc(-c3cccc(NC(=O)Cc4ccc(F)cc4)c3)no2)cc1OC
2. CC(C)(C)n1nc(Cc2cccc3ccccc23)c2c(N)ncnc21
3. O=C(NCc1ccco1)N1CCN(Cc2ccc(Cl)s2)CC1

1. 42.7
2. 18.3
3. 2.55

Origin of the recorded values: the supplement of paper PMC6763611
